shrunken log2 fold change values by entry
tested on: Escherichia coli TOP10; assay: shrunken log2 fold change of peptide-encoding DNA abundance (4.5 h post-induction vs induction); higher = less antimicrobial activity (less host growth inhibition); settings: time post-induction: 4.5 h; library: site-saturation at positions 5, 18, 19, 20;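 note: peptides expressed intracellularly from a pBAD plasmid library in pooled LB shake-flask culture, induced with 0.3% L-arabinose, DNA abundance read by NGS, three biological replicates, DESeq2 with apeglm shrinkage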
The answer should be a number; do not append a unit.

Lab note: RRIRFRPPRLPRPRPRPLQSPRP gave shrunken log2 fold change of 0.11

Lab note: RRIRQRPPRLPRPRPRPWNLPRP gave shrunken log2 fold change of -0.0507

Lab note: RRIRDRPPRLPRPRPRPSVTPRP gave shrunken log2 fold change of 0.0709

Lab note: RRIRLRPPRLPRPRPRPRICPRP gave shrunken log2 fold change of -0.237

Lab note: RRIRERPPRLPRPRPRPVTHPRP gave shrunken log2 fold change of -0.194

Lab note: RRIRFRPPRLPRPRPRPDMSPRP gave shrunken log2 fold change of -0.0802

Lab note: RRIRSRPPRLPRPRPRPNPPPRP gave shrunken log2 fold change of -0.222

Lab note: RRIRSRPPRLPRPRPRPNEAPRP gave shrunken log2 fold change of 0.162
